molecular target: Protein phosphatase 1D (Homo sapiens) (UniProt O15297); experiment: RapidFire Mass Spectrometry qHTS Assay for Modulators of WT P53-Induced Phosphatase 1 (WIP1) (AID 1347424); conditions: WIP1 dephosphorylation of phosphopeptide, RapidFire MS; series mostly up to 63 µM;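 further: amount of dephosphorylated VEPPL-S-QETFS peptide product formed by WIP1; plate controls were DMSO wells for no effect and GSK830371 inhibitor control at 10 µM for full effect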
Sequence (O15297 whole entry, looked up): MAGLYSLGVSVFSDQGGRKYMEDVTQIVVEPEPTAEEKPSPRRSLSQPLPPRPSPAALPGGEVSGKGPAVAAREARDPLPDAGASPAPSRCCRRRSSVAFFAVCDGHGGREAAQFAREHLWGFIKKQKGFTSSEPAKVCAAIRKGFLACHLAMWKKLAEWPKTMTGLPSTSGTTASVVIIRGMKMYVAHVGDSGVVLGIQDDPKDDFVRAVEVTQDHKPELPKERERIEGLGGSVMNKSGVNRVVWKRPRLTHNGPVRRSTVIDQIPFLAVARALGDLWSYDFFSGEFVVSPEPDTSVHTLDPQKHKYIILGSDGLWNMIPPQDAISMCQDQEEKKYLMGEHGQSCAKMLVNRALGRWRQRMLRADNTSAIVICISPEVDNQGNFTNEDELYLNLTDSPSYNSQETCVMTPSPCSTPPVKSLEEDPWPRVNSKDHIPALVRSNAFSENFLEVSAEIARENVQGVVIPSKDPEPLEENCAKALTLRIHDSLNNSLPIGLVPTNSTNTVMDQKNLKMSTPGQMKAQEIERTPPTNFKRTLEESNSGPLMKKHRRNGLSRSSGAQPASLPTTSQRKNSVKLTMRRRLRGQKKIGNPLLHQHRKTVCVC
Inconclusive results are not listed. The source made the active and inactive calls. The call rests on the fitted dose curve; in most records, active means well fitted inhibition curve with a large enough effect; inconclusive means small, poorly fitted or top-dose-only effect; inactive means no such curve, though single readings can be large or run the other way.
endpoint label: outcome

See these solved cases before continuing.
compound: CN(C)C(=S)SSC(=S)N(C)C
system under test: Protein phosphatase 1D (Homo sapiens) (UniProt O15297)
outcome: inactive
--
compound: C[C@]12CC[C@H]3[C@@H](CC=C4C[C@@H](O)CC[C@@]43C)[C@@H]1CC[C@@H]2O
system under test: Protein phosphatase 1D (Homo sapiens) (UniProt O15297)
outcome: inactive
--
compound: CN1C(=O)CN=C(c2ccccc2)c2cc(Cl)ccc21
system under test: Protein phosphatase 1D (Homo sapiens) (UniProt O15297)
outcome: inactive
--
compound: CCCCCCCCC(=O)NCc1ccc(O)c(OC)c1
system under test: Protein phosphatase 1D (Homo sapiens) (UniProt O15297)
outcome: inactive
--
compound: CN1CCc2cc(Cl)c(O)cc2[C@H]2c3ccccc3CC[C@@H]21
system under test: Protein phosphatase 1D (Homo sapiens) (UniProt O15297)
outcome: inactive

Assay Protein phosphatase 1D (Homo sapiens) (UniProt O15297), sample CC(=O)OC1(c2ccccc2)CCN(CCc2ccccc2)CC1 , outcome read: inactive

Assay Protein phosphatase 1D (Homo sapiens) (UniProt O15297), sample COc1ccc2c3c1O[C@H]1[C@@H](O)C=C[C@H]4[C@@H](C2)N(C)CC[C@@]341 , outcome read: inactive

Assay Protein phosphatase 1D (Homo sapiens) (UniProt O15297), sample CC(C)(C)OC(=O)c1ncn2c1[C@@H]1CCCN1C(=O)c1c(Br)cccc1-2 , outcome read: inactive

Assay Protein phosphatase 1D (Homo sapiens) (UniProt O15297), sample C[N+]1(C)[C@@H]2CC[C@H]1CC(OC(=O)C(CO)c1ccccc1)C2 (stereo partly specified) , outcome read: inactive

Assay Protein phosphatase 1D (Homo sapiens) (UniProt O15297), sample Clc1ccc(C(OCCN2CCCCC2)c2ccccc2)cc1 (stereo unspecified) , outcome read: inactive

Assay Protein phosphatase 1D (Homo sapiens) (UniProt O15297), sample CCOC(=O)c1cncn1C(C)c1ccccc1 (stereo unspecified) , outcome read: inactive

###

experiment: qHTS of pediatric cancer cell lines to identify multiple opportunities for drug repurposing: Confirmatory screen for Rh41 cells (AID 1347123); settings: Rh41 rhabdomyosarcoma cells, viability/cytotoxicity qHTS; series mostly up to 45.9 µM;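 further: 48 h compound exposure; nearly all actives have a fitted effect of over 60% in size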
Results filed as inconclusive are left out. Calls of active or inactive are those of the source. Calls come from the whole dose curve; as a rule, active = well fitted cell-killing curve with a large enough effect; inconclusive = small, poorly fitted or top-dose-only effect; inactive = no such curve, though single readings can be large or run the other way.
Choose the fitting class; nothing outside T for active, F for inactive is accepted.

compound: COC(=O)C1=CCCN(C)C1
assigned label: F

Called result for CC1Sc2c(C(=O)O)c(=O)c3cc(F)c(N4CCNCC4)cc3n21 (stereo not drawn) F

Called result for Cc1ccc([N+](=O)[O-])[c]2c1[O][Hg]2 T

Called result for COc1ccc(C(=O)N2CCCC2=O)cc1 F

Called result for CCCCCCCCC(=O)NCc1ccc(O)c(OC)c1 F

Called result for CN(C)C(=S)SSC(=S)N(C)C T

Called result for CC[n+]1c(-c2ccccc2)c2cc(N)ccc2c2ccc(N)cc21 T

Called result for ClC1=C(Cl)C2(Cl)C(CBr)CC1(Cl)C2(Cl)Cl (stereo not drawn) F

###

test system: HEK293; assay: Cytotoxic Profiling of Annotated Libraries Using Quantitative High-Throughput Screening (AID 1296008); conditions: Five cell lines viability, CellTiter-Glo ATP luminescence, 48-72 h; further: nearly all actives have a fitted effect of over 60% in size
Inconclusive results are not listed. Activity calls are given as the source filed them. Calls follow the shape of the dose curve; as a rule, active = well fitted inhibition curve with a large enough effect; inconclusive = small, poorly fitted or top-dose-only effect; inactive = flat fitted curve, though single readings scatter.
Choose the fitting class; nothing outside true (1) (active), false (0) (inactive) is accepted.

Here are 4 compounds together with their reported answers.
compound: CN(C)C(=S)SSC(=S)N(C)C
assigned label: true (1)

compound: CCC(OC(C)=O)C(CC(C)NC)(c1ccccc1)c1ccccc1 (stereo unspecified)
assigned label: true (1)

compound: C[C@@H]1CC[C@H]2[C@@H](C)C(=O)O[C@@H]3O[C@@]4(C)CC[C@@H]1[C@]32OO4
assigned label: true (1)

compound: O=C(CCCCl)c1ccc(F)cc1
assigned label: false (0)

Called result for CC#C[C@]1(O)CC[C@H]2[C@@H]3C[C@H](C)C4=CC(=O)CC[C@]4(C)[C@H]3CC[C@@]21C true (1)

Called result for Cc1ccc(N=CN(C)C=Nc2ccc(C)cc2C)c(C)c1 false (0)

###

assay: qHTS profiling for inhibitors of Plasmodium falciparum proliferation (AID 504749); further: potency means the concentration at half of the fitted maximal effect; nearly all actives have a fitted effect of over 60% in size; settings: P. falciparum in erythrocytes, SYBR Green DNA, 72 h; parasite line A
Records with an inconclusive call do not appear. Active and inactive are the calls of the source. Calls follow the shape of the dose curve; as a rule, active = well fitted inhibition curve with a large enough effect; inconclusive = small, poorly fitted or top-dose-only effect; inactive = flat fitted curve, though single readings scatter.
Overview of reported Potency across a group of compounds:

record smiles: CC(C)(O)C(Cl)(Cl)Cl
endpoint label: Potency
result: 11.2 µM (active)
--
record smiles: O=C(CCCN1CCC(n2c(=O)[nH]c3ccccc32)CC1)c1ccc(F)cc1
endpoint label: Potency
result: 3.16 µM (active)
--
record smiles: CCCCCCCCCCCC[N+](C)(C)CCOc1ccccc1
endpoint label: Potency
result: 3.55 µM (active)
--
record smiles: Clc1ccc(CO/N=C(\Cn2ccnc2)c2ccc(Cl)cc2Cl)c(Cl)c1
endpoint label: Potency
result: 3.55 µM (active)

Potency for CN(C)C(=S)SSC(=S)N(C)C is 2.51 µM (active)

###

test: Primary qHTS to identify inhibitors of SARS-CoV-2 cell entry (AID 1645846); conditions: SARS-CoV-2 pseudovirus cell entry assay, luminescence; series mostly up to 57.1 µM; further: nearly all actives have a fitted effect of over 45% in size
Results filed as inconclusive are left out. Activity calls are given as the source filed them. The call rests on the fitted dose curve.
Choose the fitting class; nothing outside true (1) = active, false (0) = inactive is accepted.

Here are 5 compounds together with their reported answers.
compound: COc1ccccc1OC(=O)Oc1ccccc1OC
assigned label: false (0)
--
compound: CCn1cc(C(=O)O)c(=O)c2cc(F)c(N3CCN(C)CC3)cc21
assigned label: false (0)
--
compound: CN(C)[C@@H]1C(=O)C(C(=O)NCN2CCCC2)=C(O)[C@@]2(O)C(=O)C3=C(O)c4c(O)cccc4[C@@](C)(O)C3C[C@@H]12 (stereo not given in full)
assigned label: false (0)
--
compound: Cc1ccc(Nc2c(F)cccc2Cl)c(CC(=O)O)c1
assigned label: false (0)
--
compound: CCCCCCCCCCCCCCCC[N+](C)(C)Cc1ccccc1
assigned label: true (1)

Called result for O=c1oc2c(O)c(O)cc3c(=O)oc4c(O)c(O)cc1c4c23 false (0)

Called result for CN1CCOC(c2ccccc2)c2ccccc2C1 (stereo not given) false (0)

Called result for O=C(O)CCC(=O)c1ccc(-c2ccccc2)cc1 false (0)

Called result for CC(C)NCC(O)COc1ccc(COCCOC(C)C)cc1 (stereo not given) false (0)

Called result for CC(C)(O)C(Cl)(Cl)Cl false (0)

Called result for CCCCC[C@H](O)C=C[C@H]1[C@H](O)CC(=O)[C@H]1CC=CCCCC(=O)O false (0)

Called result for CCCCCCCCCCCCCCCCCCNC(=O)OC1CCN(C(=O)OC[C@H](COC(=O)N(Cc2cccc[n+]2CC)C(=O)c2ccccc2OC)OC)CC1 true (1)

Called result for CN1[C@@H]2CC[C@H]1CC(OC(=O)c1c[nH]c3ccccc13)C2 (stereo not given in full) false (0)

Called result for Brc1c(NC2=NCCN2)ccc2nccnc12 false (0)

Called result for O=S(=O)(c1cccc2cnccc12)N1CCCNCC1 false (0)

Called result for O=C1OC(c2ccc(O)cc2)(c2ccc(O)cc2)c2ccccc21 false (0)

Called result for CN(C)c1ccc(C(=C2C=CC(=[N+](C)C)C=C2)c2ccccc2)cc1 true (1)

Called result for OC[C@H]1O[C@@H](O[C@@H]2[C@@H](CO)O[C@](O)(CO)[C@H]2O)[C@H](O)[C@@H](O)[C@H]1O false (0)

Called result for CNC(=O)Oc1cccc2ccccc12 false (0)

Called result for CCOC(=O)OCC/C(SC(=O)OCC)=C(\C)N(C=O)Cc1cnc(C)nc1N false (0)

Called result for O=c1c(-c2ccccc2)c1-c1ccccc1 true (1)

Called result for O=C(CCCN1CCC(n2c(=O)[nH]c3ccccc32)CC1)c1ccc(F)cc1 false (0)

Called result for O=c1cc(CO)occ1O false (0)

Called result for Cc1cccc(N(C)C(=S)Oc2ccc3c(c2)C2CCC3C2)c1 (stereo not given) false (0)

###

conditions: Ebola virus entry assay, blue channel fluorescence
The source made the active and inactive calls. How the calls were made is not given here.
Choose the fitting class; nothing outside T (active), F (inactive) is accepted.

compound: COc1ccc(C(=O)N2CCCC2=O)cc1
assigned label: F

compound: Cc1oc(-c2ccccc2)nc1CCC(=O)c1ccc(CC2SC(=O)NC2=O)cc1 (stereo unspecified)
assigned label: F

compound: OC(C#CCN1CCCC1)(c1ccccc1)c1ccccc1
assigned label: T

compound: CCNC(=O)NCCCOc1cccc(CN2CCCCC2)c1
assigned label: F

compound: CC(=O)Oc1c(C)c(C)c2c(c1C)CC[C@@](C)(CCC[C@H](C)CCC[C@H](C)CCCC(C)C)O2
assigned label: F

Called result for CCCCCCCCCCCCOCCOCCOCCOCCOCCOCCOCCOCCOCCO F

Called result for O=C1NC2CCCCN2C12CCN(CCCN1c3ccccc3CCc3ccc(Cl)cc31)CC2 (stereo unspecified) T
